target: biotinylated His-Avi-TEAD (194-411) (UniProt P28347); test: SSM screen, enrichment after two rounds of sorting
Tick met if enrichment score is -2 or greater. Tick not met if enrichment score is less than -2.

Completed entries (count: 3):
INSERT INTO assay_data (binder, class_assignment) VALUES
  ('GSPDEYIERAHECCKKGDIQCCLRYFEESGDPNVMLICLFCP (designed binder) [K09H variant of SEQ ID NO: 1]', 'met'),
  ('GSQDEYIERAKECCKKGDIQCCLRYFEESGDPNVMLICLFCP (designed binder) [P01Q variant of SEQ ID NO: 1]', 'met'),
  ('GSWDEYIERAKECCKKGDIQCCLRYFEESGDPNVMLICLFCP (designed binder) [P01W variant of SEQ ID NO: 1]', 'not met');

input: Would you say GSPDEYIERPKECCKKGDIQCCLRYFEESGDPNVMLICLFCP (designed binder) [A08P variant of SEQ ID NO: 1] shows enrichment score at minimum -2?
output: not met

input: Would you say GSPDEYIERAKECCKKGDIACCLRYFEESGDPNVMLICLFCP (designed binder) [Q18A variant of SEQ ID NO: 1] shows enrichment score at minimum -2?
output: met

input: Would you say GSPDEYIERAKECCIKGDIQCCLRYFEESGDPNVMLICLFCP (designed binder) [K13I variant of SEQ ID NO: 1] shows enrichment score at minimum -2?
output: met

input: Would you say GSPDEYIERADECCKKGDIQCCLRYFEESGDPNVMLICLFCP (designed binder) [K09D variant of SEQ ID NO: 1] shows enrichment score at minimum -2?
output: met

input: Would you say GSPDEYIERAKVCCKKGDIQCCLRYFEESGDPNVMLICLFCP (designed binder) [E10V variant of SEQ ID NO: 1] shows enrichment score at minimum -2?
output: met

input: Would you say GSPDEYLERAKECCKKGDIQCCLRYFEESGDPNVMLICLFCP (designed binder) [I05L variant of SEQ ID NO: 1] shows enrichment score at minimum -2?
output: met

input: Would you say GSPDWYIERAKECCKKGDIQCCLRYFEESGDPNVMLICLFCP (designed binder) [E03W variant of SEQ ID NO: 1] shows enrichment score at minimum -2?
output: met
